Ref: patent US20150197564A1

Target: T1, hANGPTL3(17-169)-mFc (human)
T1 construct: also called N-terminal coiled-coil domain of hANGPTL3 with a C-terminal mouse Fc fusion
T1 chain: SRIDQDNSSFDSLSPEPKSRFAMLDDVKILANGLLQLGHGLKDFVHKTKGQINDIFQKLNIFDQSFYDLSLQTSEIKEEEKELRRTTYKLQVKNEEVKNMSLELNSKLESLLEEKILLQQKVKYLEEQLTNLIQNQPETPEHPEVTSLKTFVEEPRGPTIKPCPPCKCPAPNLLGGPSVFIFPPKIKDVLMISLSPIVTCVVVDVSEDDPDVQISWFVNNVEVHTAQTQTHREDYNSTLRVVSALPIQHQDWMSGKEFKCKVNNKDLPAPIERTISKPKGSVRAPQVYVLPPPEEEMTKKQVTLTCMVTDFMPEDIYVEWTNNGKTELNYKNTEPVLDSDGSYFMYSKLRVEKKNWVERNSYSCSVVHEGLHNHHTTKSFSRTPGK
Test: SPR Biacore, antigen captured, 25C, pH 7.4, HBS-EP
reported_property: t1/2 (h)
Express the result in h but write the number alone.

Asked: Looking for the measured t1/2 of H4H1292P (antibody, IgG4, V domains shown) VH: QVQLVESGGGLVKPGGSLRLSCAASGFTFSDYYMSWIRQAPGKGLEWVSYISSSGSTIYYADSVKGRFTISRDNAKNSLYLQMNSLRAEDTAVYYCARDSSQLGFDYWGQGTLVTVSS VL: DIQMTQSPSSLSASVGDRVTITCRASQSIISFLNWYQQKPGKAPKLLIYTASSLQSGVPSRFSGSGSGTDFTLTISSLQPEDFATYYCQQTYSNPLTFGGGTKVEIKR , can you help?
Given back: 1.08

Asked: Dear colleague, I am looking for the recorded t1/2 of the following binder: H4H1279P (antibody, IgG4, V domains shown) VH: QVQLVESGGGLVKPGGSLRLSCAASGFTFSDYYMSWIRQAPGKGLEWVSYIGSSGVNMYYADSVKGRFTISRDNAKNSLYLEMNSLRAEDTAVYYCARDSSQLGFDYWGQGTLVTVSS VL: DIQMTQSPSSLSASVGDRVTITCRTSQNIINFLNWYQQKPGKAPKLLIYTTSTLQSGVPSRFSGSGSGTDFTLSINSLQPEDFATYFCQQTYSNPLTFGGGTKLEIKR
Given back: 34.8

Asked: Query: t1/2; subject: H4H1268S (antibody, IgG4, V domains shown) VH: QVQLQQSGPGLVKPSQTLSLTCAISGDSVSSNSPAWNWIRQSPSRGLEWLGRTYYRSKWYNDYAVSVRGRITINPDTSNNQFSLHLNSVTPEDTAMYYCARDKGLTARPTYFDYWGQGTLVTVSS VL: DIQMTQSPSTLSASVGDRVTITCRASQSINYWLAWYQQKPGKAPKPLIYKASSLESGVPSRFSGSGSGTEFTLTISSLQPDDFTTYYCQQYNSYSPTFGQGTKLEIKR
Given back: 0.233
